Tested on: NK-92 (IL-2 2.5 ng/mL)
Experiment: percent inhibition of viability; higher = more inhibition;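 further: normalised to DMSO-only wells as negative and benzethonium chloride as positive control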
Conditions: 72 h; 1000 nM
Recorded percent inhibition of viability, one value per entry.
Report the value in % with no unit label.

Answered examples (2):
| compound | percent inhibition of viability / % |
| --- | --- |
| c1ccc(Cn2c(-c3ccc(OC[C@H](C4CCNCC4)n4c(-c5ccccc5)nc5ccccc54)cc3)nc3ccccc32)cc1 [deltarasin] (max concentration tested 10000 nM) | 17.8 |
| Oc1nc(-c2ccc(C(F)(F)F)cc2)nc2c1CSCC2 [XAV-939] (max concentration tested 10000 nM) | 22 |

// recorded percent inhibition of viability for C[C@@H]1C[C@H]2[C@@H]3CCC4=CC(=O)C=C[C@]4(C)[C@@]3(F)[C@@H](O)C[C@]2(C)[C@@]1(O)C(=O)CO [Dexamethasone] (max concentration tested 10000 nM) : -2.77

Reported percent inhibition of viability of COc1cc(CCc2cc(NC(=O)c3ccc(N4CC(C)NC(C)C4)cc3)n[nH]2)cc(OC)c1 (stereo not drawn) [AZD4547] (max concentration tested 1000 nM) : 9.5

Sure, the documented percent inhibition of viability for CC(C)n1cnc2c(NCCc3ccc(O)cc3)nc(-c3csc4ccccc34)nc21 [StemRegenin 1] (max concentration tested 10000 nM) is 39.2

Reported percent inhibition of viability for COc1cc([C@@H]2c3cc4c(cc3[C@@H](O[C@@H]3O[C@@H]5CO[C@@H](C)O[C@H]5[C@H](O)[C@H]3O)[C@H]3COC(=O)[C@H]23)OCO4)cc(OC)c1O [Etoposide] (max concentration tested 10000 nM) was 67.3

The reported percent inhibition of viability of the compound CC1(C)NC(=O)N(c2ccc([N+](=O)[O-])c(C(F)(F)F)c2)C1=O [Nilutamide] (max concentration tested 10000 nM) was -1.88

percent inhibition of viability for Cc1c(N)nc([C@H](CC(N)=O)NC[C@H](N)C(N)=O)nc1C(=O)N[C@H](C(=O)N[C@H](C)[C@@H](O)[C@H](C)C(=O)N[C@H](C(=O)NCCc1nc(-c2nc(C(=O)NCCC[S+](C)C)cs2)cs1)[C@@H](C)O)[C@@H](OC1OC(CO)C(O)C(O)C1OC1OC(CO)C(O)C(OC(N)=O)C1O)c1cnc[nH]1 (stereo partly drawn) [Bleomycin] (max concentration tested 10000 nM) is 60.3

For reference, reported percent inhibition of viability for Cc1c(CN2CCN(C(=O)[C@H](C)O)CC2)sc2c(N3CCOCC3)nc(-c3cnc(N)nc3)nc12 [Apitolisib] (max concentration tested 10000 nM) stands at 45.1

Record summary for CCC1(c2ccc(N)cc2)CCC(=O)NC1=O (stereo not drawn) [Aminoglutethimide] (max concentration tested 10000 nM) : reported percent inhibition of viability = 0.81

# percent inhibition of viability of NC(=O)Nc1cc(-c2cccc(F)c2)sc1C(=O)N[C@H]1CCCNC1 [AZD7762] (max concentration tested 1000 nM) = 104

Per the records, this compound ( NC(=O)c1cccc(-c2cccc(OC(=O)NC3CCCCC3)c2)c1 [URB597] (max concentration tested 1000 nM) ) has percent inhibition of viability equal to 7.28

Entry O=P1(NCCCl)OCCCN1CCCl (stereo not drawn) [Ifosfamide] (max concentration tested 10000 nM) — recorded percent inhibition of viability = -21.1

Quick note, percent inhibition of viability for NC1(c2ccc(-c3nc4ccn5c(=O)[nH]nc5c4cc3-c3ccccc3)cc2)CCC1 [MK-2206] (max concentration tested 1000 nM) landed at 42.8

Just so you know, measured percent inhibition of viability for CCCCCCCCc1ccc(CCC(N)(CO)CO)cc1 [Fingolimod] (max concentration tested 10000 nM) came out at -5.13

For reference, reported percent inhibition of viability for C[C@]12C=CC(=O)C=C1CC[C@@H]1[C@@H]2[C@@H](O)C[C@@]2(C)[C@H]1CC[C@]2(O)C(=O)CO [Prednisolone] (max concentration tested 10000 nM) stands at -24.4

Looking up C[C@]12CC[C@@H]3c4ccc(O)cc4C[C@@H](CCCCCCCCC[S+]([O-])CCCC(F)(F)C(F)(F)F)[C@H]3[C@@H]1CC[C@@H]2O (stereo partly drawn) [Fulvestrant] (max concentration tested 1000 nM) , I see its percent inhibition of viability listed as 35.1

// percent inhibition of viability lookup, compound = CN(N=O)C(=O)N[C@@H](C=O)[C@@H](O)[C@H](O)[C@H](O)CO [Streptozocin] (max concentration tested 10000 nM) , result: -2.99

Given item O=C(CCCCCCNC(=O)c1cnc(N(c2ccccc2)c2ccccc2)nc1)NO [Rocilinostat] (max concentration tested 10000 nM) , the value recorded as its percent inhibition of viability is 41

Recorded percent inhibition of viability (compound COc1nc(N)nc2c1ncn2[C@@H]1O[C@H](CO)[C@@H](O)[C@@H]1O [Nelarabine] (max concentration tested 10000 nM) ): 8.69

Query CNC(=O)c1ccccc1Sc1ccc2c(/C=C/c3ccccn3)n[nH]c2c1 [Axitinib] (max concentration tested 10000 nM) yields percent inhibition of viability of 24.3

response.value for Cn1c(CCCC(=O)O)nc2cc(N(CCCl)CCCl)ccc21 [Bendamustine] (max concentration tested 10000 nM) (field: percent inhibition of viability) = -10.7

Value of measured percent inhibition of viability for the entry CS(=O)(=O)N1CCN(Cc2cc3nc(-c4cccc5[nH]ncc45)nc(N4CCOCC4)c3s2)CC1 [Pictilisib] (max concentration tested 10000 nM) : 36.6

====

System: NK-92 (IL-2 2.5 ng/mL)
Experiment: percent inhibition of viability; higher = more inhibition
Settings: 72 h; 1000 nM
measuredQuantity: percent inhibition of viability (%)
Return type: number; implicit unit %.

Worked set:
| compound | measuredQuantity | dataValue |
| --- | --- | --- |
| CO[C@H](C(=O)[C@@H](O)[C@@H](C)O)[C@@H]1Cc2cc3cc(O[C@H]4C[C@@H](O[C@@H]5C[C@@H](O)[C@H](O)[C@@H](C)O5)[C@H](O)[C@@H](C)O4)c(C)c(O)c3c(O)c2C(=O)[C@H]1O[C@H]1C[C@@H](O[C@@H]2C[C@@H](O)[C@@H](O[C@@H]3C[C@](C)(O)[C@H](O)[C@@H](C)O3)[C@@H](C)O2)[C@H](O)[C@@H](C)O1 [Plicamycin] (max concentration tested 10000 nM) | percent inhibition of viability | 94.4 |
| Nc1nc(Cl)nc2c1ncn2[C@@H]1O[C@H](CO)[C@@H](O)[C@@H]1F [Clofarabine] (max concentration tested 10000 nM) | percent inhibition of viability | 101 |

Please look at the following compound next.
Reported percent inhibition of viability for N#Cc1ccc2[nH]c(O)c(-c3ccc(CN4CCOCC4)cn3)c2c1 [AZD-1080] (max concentration tested 10000 nM) was -11.2

====

Test system: IMC-1 (IL-2 20 ng/mL)
Test: percent inhibition of viability; higher = more inhibition
Settings: 72 h; 1000 nM
Form field: percent inhibition of viability (one value per entry).
Give just the number in %; leave the unit off.

Examples with answers:
| compound | dataValue |
| --- | --- |
| CC1(C)CCC(c2ccc(Cl)cc2)=C(CN2CCN(c3ccc(C(=O)NS(=O)(=O)c4ccc(N[C@H](CCN5CCOCC5)CSc5ccccc5)c(S(=O)(=O)C(F)(F)F)c4)cc3)CC2)C1 [Navitoclax] (max concentration tested 10000 nM) | 38.7 |
| C[C@@H](C(=O)O)c1ccc(-c2ccccc2)c(F)c1 [Tarenflurbil] (max concentration tested 10000 nM) | -6.55 |
| CC/C(=C(\c1ccc(O)cc1)c1ccc(OCCN(C)C)cc1)c1ccccc1 [4-hydroxytamoxifen] (max concentration tested 10000 nM) | 9.15 |
| O=C(NC[C@H](O)CO)c1ccncc1Nc1ccc(I)cc1F [Pimasertib] (max concentration tested 10000 nM) | -4.58 |
| CCN(CC)CCNC(=O)c1c(C)[nH]c(/C=C2\C(=O)Nc3ccc(F)cc32)c1C [Sunitinib] (max concentration tested 1000 nM) | -11.7 |

percent inhibition of viability for CC[C@H](C)C(=O)O[C@H]1C[C@@H](C)C=C2C=C[C@H](C)[C@H](CC[C@@H]3C[C@@H](O)CC(=O)O3)[C@H]21 [Lovastatin] (max concentration tested 10000 nM) is -8.19

====

Recorded percent inhibition of viability, one value per entry.
Tested on: KAI3 (IL-2 2.5 ng/mL)
Test: percent inhibition of viability; higher = more inhibition
Settings: 72 h; 250 nM
Please report the result as a number followed by the unit.

Sample records with percent inhibition of viability:
| molecule | percent inhibition of viability |
| --- | --- |
| C[C@@H]1CN(CC(=O)Nc2ccc3c(c2)Cc2cccc(-c4cc(=O)cc(N5CCOCC5)o4)c2S3)C[C@H](C)O1 (max concentration tested 25000 nM) | -7.91% |
| COc1ccc2c(OCc3nnc4ccc(-c5ccccc5)nn34)ccnc2c1 [AMG-208] (max concentration tested 2500 nM) | 1.34% |

Please fill in: percent inhibition of viability reported for Cc1cc([C@@H](C)Nc2ccccc2C(=O)O)c2nc(N3CCOCC3)cc(=O)n2c1 [AZD-6482] (max concentration tested 2500 nM) = 1.82%
